Target: Angiotensin I Converting Enzyme (ACE) (Oryctolagus cuniculus, UniProt P12822)
Sequence (P12822 34-1310): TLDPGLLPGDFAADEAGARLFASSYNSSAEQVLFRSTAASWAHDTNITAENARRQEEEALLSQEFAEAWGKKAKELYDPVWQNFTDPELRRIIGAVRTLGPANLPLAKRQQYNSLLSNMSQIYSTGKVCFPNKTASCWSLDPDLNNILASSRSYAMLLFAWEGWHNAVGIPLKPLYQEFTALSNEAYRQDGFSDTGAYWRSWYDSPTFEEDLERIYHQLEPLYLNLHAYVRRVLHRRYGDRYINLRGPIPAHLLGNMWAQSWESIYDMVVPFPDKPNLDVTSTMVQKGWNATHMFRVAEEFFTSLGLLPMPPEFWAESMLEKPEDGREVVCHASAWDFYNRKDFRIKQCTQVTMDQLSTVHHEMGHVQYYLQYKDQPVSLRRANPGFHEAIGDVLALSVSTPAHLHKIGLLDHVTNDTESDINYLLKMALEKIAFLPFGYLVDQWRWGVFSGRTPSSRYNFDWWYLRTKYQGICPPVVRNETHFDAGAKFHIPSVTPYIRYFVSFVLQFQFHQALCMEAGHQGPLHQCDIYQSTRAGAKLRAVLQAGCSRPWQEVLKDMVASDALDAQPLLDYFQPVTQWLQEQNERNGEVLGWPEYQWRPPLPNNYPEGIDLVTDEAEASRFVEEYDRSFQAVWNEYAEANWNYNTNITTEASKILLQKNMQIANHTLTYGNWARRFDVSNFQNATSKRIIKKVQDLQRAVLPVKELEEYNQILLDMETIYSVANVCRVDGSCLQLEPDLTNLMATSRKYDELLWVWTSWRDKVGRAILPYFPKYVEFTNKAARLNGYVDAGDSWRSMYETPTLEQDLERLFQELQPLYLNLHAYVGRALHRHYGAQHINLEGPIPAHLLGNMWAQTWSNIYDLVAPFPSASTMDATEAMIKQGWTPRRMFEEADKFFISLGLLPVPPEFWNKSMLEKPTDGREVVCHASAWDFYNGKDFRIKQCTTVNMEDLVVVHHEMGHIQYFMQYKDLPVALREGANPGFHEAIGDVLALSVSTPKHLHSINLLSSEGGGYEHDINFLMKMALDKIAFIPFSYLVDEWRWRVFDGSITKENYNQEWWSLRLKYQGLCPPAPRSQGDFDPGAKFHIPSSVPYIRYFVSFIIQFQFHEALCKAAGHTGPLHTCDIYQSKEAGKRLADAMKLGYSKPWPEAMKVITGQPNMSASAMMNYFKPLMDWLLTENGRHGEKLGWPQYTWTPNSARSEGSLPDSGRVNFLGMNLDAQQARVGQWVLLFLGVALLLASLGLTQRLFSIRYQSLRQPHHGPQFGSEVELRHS
Assay: Inhibition of Angiotensin I Converting Enzyme (ACE), HHL substrate, modified Cushman method
Format: biochemical
Conditions: concentration 1 μM; read-out: ACE inhibitory activity (%)
Where a name gives a salt, the structure may show the parent alone.
PROPERTY MEASURED: inhibition at 1 µM (%)
Kindly answer with a numeric value in %, unit omitted.

Worked cases, answers included:
NCCCCCC[C@H](N[C@H]1CSc2ccccc2N(CC(=O)O)C1=O)C(=O)O [Example 73] = 100
CCOC(=O)[C@@H](CCc1ccccc1)N[C@H]1CSc2ccccc2N(CC(=O)O)C1=O [Example 5, hydrochloride] = 84
CCOC(=O)C(CCc1ccccc1)N[C@H]1CSc2ccccc2N(CC(=O)O)C1=O (stereo partly drawn) [Example 6] = 85
NCCCC[C@H](N[C@H]1CSc2ccccc2N(CC(=O)O)C1=O)C(=O)O [Example 60] = 98

Exercise: // query inhibition at 1 µM value for entry CCOC(=O)[C@H](CCC1CCCCC1)N[C@H]1CSc2ccccc2N(CC(=O)O)C1=O.Cl [Example 9, hydrochloride]
Solution: 95

Exercise: Given the entry O=C(O)CN1C(=O)[C@@H](N[C@@H](CCCCNC2CCCCC2)C(=O)O)CSc2ccccc21 [Example 69] , report its measured inhibition at 1 µM.
Solution: 100
